# protocolDescription: refractive index (Na D-line) (dimensionless)
# setupConditions: 298.15 K; 101.33 kPa; Liquid; Standard Abbe refractometry
Please provide measured refractive index for the entries that follow.
One number for each entry.

Solved cases below.
CC(C)Cc1ccccc1 [(2-methylpropyl)benzene] :: 1.48397
CCCCc1ccccc1 [butylbenzene] :: 1.48735
CCCCOC(C)=O [butyl ethanoate] :: 1.39176
CC(C)(C)c1ccccc1 [(1,1-dimethylethyl)benzene] :: 1.49003

Answer for every listed entry: what is its refractive index? The entries follow.
1. CC(C)c1ccccc1 [isopropylbenzene]
2. Cc1cc(C)cc(C)c1 [1,3,5-trimethylbenzene]

[1.48869, 1.49682]

---

# protocolDescription: refractive index (Na D-line) (dimensionless)
# setupConditions: 298.15 K; 101.33 kPa; Liquid; Standard Abbe refractometry
assayEndpoint: refractive index
Answers are plain numbers.

Some solved entries appear below for comparison.
CCc1ccccc1 [ethylbenzene] :: 1.49316
Cc1ccccc1 [toluene] :: 1.49399

Note: attention shifts to another entry.
Record summary for Cc1ccc(C)cc1 [1,4-dimethylbenzene] : reported refractive index = 1.49298
